Reference for the values: the DeepSol protein solubility set

- Assay Explanation: soluble on expression in E. coli; label from the status in PepcDB or PDB records
Measured Property: soluble on expression in E. coli

MSFFEQYRTGNLVLPNALFFHFKDIFPSADDFLVWQFLYLQTTTQIGEVASSQIAQATGKTPTEVNKSITTLTEAGLLDFTTVKVNNEIKMVVDASPALAVLDKLVSSENSTTGPVAGQPTNTQLIKQLTDELEQALGILNPMVIEDLNKEIQEEHTDPELIREALKEAVFNRKTNWNYIKGVLRNWKLSGITTKIQVEERRLEHQGKKQHHQVSDEFKTGMDAARQLWGGQ : not soluble
MTKQIKVGVIGVGQMGQYHAEIYQKLPQVELVAICEFNDERRAEMAEKFQCKAYKDYHELLANTEIEAVIIVLPDNMHRDCVEEAVKHKKHILLEKPLAKELEDGKAMYELTKDYDKVFTVGFLLRFDPRFNMIKQRLDNGELGDIIHLYCRRNSPITGPKRYIGASDLSMHVMIHDIDYINWYMDSEPVKVIAKSRSVLLKEYGMNDVIYAIVTYENGAIACLEACWVLPENSPTIIDDKLELVGTKGVAYVDSCDHGVRFVSEKGVSYPDSRHWYYTNGEVSGDLAEEVMAFINNVANNTKSIITPKEAYDSLRVVDAIERSIAEGKEVSL : not soluble
